Reported log10(IC50) by item:
Species: Homo sapiens
Experiment: In vitro for its inhibitory activity against platelet aggregation induced by ADP
Assay type: functional
A value of 2 here means IC50 of 100 in µM, since values are log10.

Worked cases, answers included:
N=C(N)Nc1ccc(C(=O)NCCC(=O)N[C@@H](CC(=O)O)C(=O)N[C@H](Cc2ccccc2)C(=O)O)cc1: -0.41
N=C(N)Nc1ccc(C(=O)NCCC(=O)N[C@@H](CC(=O)O)C(=O)N[C@H](Cc2ccc(F)cc2)C(=O)O)cc1: 0.23
N=C(N)Nc1ccc(C(=O)NCCC(=O)N[C@@H](CC(=O)O)C(=O)N[C@H](Cc2c[nH]c3ccccc23)C(=O)O)cc1: -1.15
N=C(N)Nc1ccc(C(=O)NCCC(=O)N[C@@H](CC(=O)O)C(=O)N[C@H](Cc2cccc3ccccc23)C(=O)O)cc1: -0.11
N=C(N)Nc1ccc(C(=O)N2CCC(C(=O)N[C@@H](CC(=O)O)C(=O)N[C@H](Cc3c[nH]c4ccccc34)C(=O)O)CC2)cc1: 0.66

log10(IC50) for N=C(N)NCc1ccc(C(=O)NCCC(=O)N[C@@H](CC(=O)O)C(=O)N[C@H](Cc2c[nH]c3ccccc23)C(=O)O)cc1 ?
-0.15

log10(IC50) for N=C(N)c1ccc(C(=O)NCCC(=O)N[C@@H](CC(=O)O)C(=O)NC(Cc2ccc(F)cc2)C(=O)O)cc1 (single isomer, unassigned) ?
-1.33

log10(IC50) for N=C(N)c1ccc(C(=O)NCCC(=O)N[C@@H](CC(=O)O)C(=O)N[C@H](Cc2ccc3ccccc3c2)C(=O)O)cc1 ?
-1.36

log10(IC50) for N=C(N)Nc1ccc(C(=O)NCCC(=O)N[C@@H](CC(=O)O)C(=O)N[C@H](Cc2ccc(O)cc2)C(=O)O)cc1 ?
-0.72

log10(IC50) for N=C(N)Nc1ccc(C(=O)NCCC(=O)N[C@@H](CC(=O)O)C(=O)N[C@H](CC2CCCCC2)C(=O)O)cc1 ?
-1.06

log10(IC50) for N=C(N)Nc1ccc(C(=O)NCCC(=O)N[C@@H](CC(=O)O)C(=O)N[C@@H](Cc2ccccc2)C(=O)O)cc1 ?
0.79
